- SYSTEM UNDER TEST: ACE (Oryctolagus cuniculus, UniProt P12822)
- Sequence (P12822 34-1310): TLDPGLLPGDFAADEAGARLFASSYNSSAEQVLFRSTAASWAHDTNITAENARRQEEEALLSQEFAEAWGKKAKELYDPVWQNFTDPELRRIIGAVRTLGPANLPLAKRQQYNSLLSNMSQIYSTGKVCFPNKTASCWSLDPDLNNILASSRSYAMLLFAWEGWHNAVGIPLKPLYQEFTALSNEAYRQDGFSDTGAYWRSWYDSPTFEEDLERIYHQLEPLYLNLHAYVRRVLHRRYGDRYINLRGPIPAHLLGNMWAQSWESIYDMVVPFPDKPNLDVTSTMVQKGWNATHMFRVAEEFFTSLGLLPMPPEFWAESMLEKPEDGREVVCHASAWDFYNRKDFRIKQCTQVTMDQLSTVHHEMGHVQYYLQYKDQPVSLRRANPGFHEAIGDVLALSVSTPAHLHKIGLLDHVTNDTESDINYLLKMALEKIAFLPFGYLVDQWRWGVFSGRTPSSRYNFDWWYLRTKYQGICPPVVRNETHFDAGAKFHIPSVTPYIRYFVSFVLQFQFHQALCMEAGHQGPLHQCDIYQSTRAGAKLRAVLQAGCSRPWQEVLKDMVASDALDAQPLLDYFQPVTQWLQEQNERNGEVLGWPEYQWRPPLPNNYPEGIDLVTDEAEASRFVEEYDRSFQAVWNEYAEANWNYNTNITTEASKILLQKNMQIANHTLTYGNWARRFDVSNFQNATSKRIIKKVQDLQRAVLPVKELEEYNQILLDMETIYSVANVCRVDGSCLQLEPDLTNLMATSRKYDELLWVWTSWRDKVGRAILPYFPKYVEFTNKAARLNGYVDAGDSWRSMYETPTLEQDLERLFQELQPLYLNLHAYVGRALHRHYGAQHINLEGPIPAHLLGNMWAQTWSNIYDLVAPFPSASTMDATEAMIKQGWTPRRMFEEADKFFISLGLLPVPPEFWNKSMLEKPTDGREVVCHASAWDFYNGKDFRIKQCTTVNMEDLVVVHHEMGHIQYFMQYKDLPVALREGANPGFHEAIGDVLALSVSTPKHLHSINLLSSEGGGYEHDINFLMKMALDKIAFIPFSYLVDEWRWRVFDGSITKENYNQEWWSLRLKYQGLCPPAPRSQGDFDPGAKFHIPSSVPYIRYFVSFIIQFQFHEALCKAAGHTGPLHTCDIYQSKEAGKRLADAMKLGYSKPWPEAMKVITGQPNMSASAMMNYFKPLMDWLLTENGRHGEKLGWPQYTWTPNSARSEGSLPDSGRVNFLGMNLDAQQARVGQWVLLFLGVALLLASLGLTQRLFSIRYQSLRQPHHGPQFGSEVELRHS
- METHOD NOTES: ACE pre-incubation of milk hydrolysate peptide libraries, stable-isotope dimethyl labeling and LC-MS/MS (D/H ratio)
- Type: in vitro ADME, rabbit
- Design: ACE (EC 3.4.15.1, 1 unit) from rabbit lungs; purchased Sigma Chemical Co. (St. Louis, MO, USA); host or cells: rabbit lungs (tissue-derived enzyme)
- CONDITIONS: milk hydrolysate peptide library (<3 kDa); ACE-treated (0.05 mU/μL ACE, borate buffer, 37 °C, 3 h: 1.5 h static + 1.5 h 200 rpm; D-labeled) versus untreated (H-labeled) peptide; intensity ratio in LC-MS; <1 = hydrolysed by ACE
No end group written: not given here.
MEASURED ATTRIBUTE: D/H Ratio
Reply: number alone, nothing else.

SIVHPSY [SIVHPSY] = 0.18
NAVPITPTLNR [NAVPITPTLNR] = 0.61
YVPLGTQ [YQ-7] = 0.33
TTMPLW [TTMPLW] = 0.15
HPHPHLSF [HPHPHLSF] = 0.15

Endpoint output: D/H Ratio of QVSLNSGY [QVSLNSGY] . Value?
0.56

For the substance shown here, LVYPFPGPIHNSL [LL-13] , give the reported D/H Ratio.
0.26

// lookup D/H Ratio for SAYPGQITSN [SAYPGQITSN]
0.65

If you can, please state the reported D/H Ratio value of SRYPSYGLN [SRYPSYGLN] .
0.81

For the substance FFVAPFPEVF [FF-10] , what D/H Ratio is on record?
0.87

Which D/H Ratio value is on record for LRPVAAEIY [LRPVAAEIY] ?
0.65

# input substance: LHLPLPLL [LL-8] ; wanted: its D/H Ratio
0.74

----------
- SYSTEM UNDER TEST: ACE (Oryctolagus cuniculus)
- METHOD NOTES: ACE hydrolysis of synthetic substrate candidates monitored by LC-MS at different incubation times
- Type: in vitro ADME, rabbit
- Design: ACE (EC 3.4.15.1, 1 unit) from rabbit lungs; purchased Sigma Chemical Co. (St. Louis, MO, USA); host or cells: rabbit lungs (tissue-derived enzyme)
- CONDITIONS: synthetic peptide with ACE, 37 °C, 120 min; RS% = As/(As+Ap)x100 from SIC peak areas, LC-MS
No end group written: not given here.
Threshold-based label: Substrate content (%) 120min under 6% gives T, Substrate content (%) 120min not under 6% gives F.

LVYPFPGPIHNSL [LL-13] = T
YVPLGTQ [YQ-7] = F
AYFYPELFR [AR-9] = T

# TODO verify Substrate content (%) 120min < 6% strictly for this substance: LHLPLPLL [LL-8]
F

For this substance, is Substrate content (%) 120min lower than 6%? HLPLPLLQSW [HW-10]
T

Threshold test, Substrate content (%) 120min < 6%: FFVAPFPEVF [FF-10]
F

----------
- SYSTEM UNDER TEST: ACE (Oryctolagus cuniculus, UniProt P12822)
- METHOD NOTES: ACE hydrolysis of synthetic substrate candidates monitored by LC-MS at different incubation times
- Type: in vitro ADME, rabbit
- Parameters: ACE (EC 3.4.15.1, 1 unit) from rabbit lungs; purchased Sigma Chemical Co. (St. Louis, MO, USA); host or cells: rabbit lungs (tissue-derived enzyme)
- CONDITIONS: synthetic peptide with ACE, 37 °C, 90 min; RS% = As/(As+Ap)x100 from SIC peak areas, LC-MS
No end group written: not given here.
MEASURED ATTRIBUTE: Substrate content (%) 90min
Your answer is read as %, so omit the unit and give the number.

Sample records with Substrate content (%) 90min:
LHLPLPLL [LL-8] = 22.61
AYFYPELFR [AR-9] = 0.00
FFVAPFPEVF [FF-10] = 34.59
HLPLPLLQSW [HW-10] = 0.00
LVYPFPGPIHNSL [LL-13] = 6.25

Here is another substance to look at.
Look up Substrate content (%) 90min with ACE (Oryctolagus cuniculus, UniProt P12822) for this substance: YVPLGTQ [YQ-7]
6.54

----------
Recorded IC50 by entry
- SYSTEM UNDER TEST: ACE (Oryctolagus cuniculus)
- METHOD NOTES: ACE inhibitory (ACEI) assay with HHL as substrate, with and without ACE pre-incubation
- Assay type: biochemical, rabbit
- Design: ACE (EC 3.4.15.1, 1 unit) from rabbit lungs; purchased Sigma Chemical Co. (St. Louis, MO, USA); host or cells: rabbit lungs (tissue-derived enzyme)
- CONDITIONS: no ACE pre-incubation; 2.5 mM HHL, ACE 0.05 mU/µL, borate buffer, 37 °C, 30 min static + 30 min 200 rpm; HA by HPLC-UV 228 nm; mean ± SD, triplicate; read-out: IC50 (μM) (Regular Assay)
No end group written: not given here.
Write the answer as a number in µM, unit excluded.

Worked examples, 5 substances total:
LHLPLPLL [LL-8] = 12.3
HLPLPLLQSW [HW-10] = 10.6
FFVAPFPEVF [FF-10] = 104
YVPLGTQ [YQ-7] = 250
AYFYPELFR [AR-9] = 6.8

Now for the substance whose IC50 we want.
Fill blank: measured IC50 of the substance LVYPFPGPIHNSL [LL-13] is ____.
38.9

----------
- SYSTEM UNDER TEST: ACE (Oryctolagus cuniculus, UniProt P12822)
- METHOD NOTES: ACE hydrolysis of synthetic substrate candidates monitored by LC-MS at different incubation times
- Format: in vitro ADME, rabbit
- Set-up: ACE (EC 3.4.15.1, 1 unit) from rabbit lungs; purchased Sigma Chemical Co. (St. Louis, MO, USA); host or cells: rabbit lungs (tissue-derived enzyme)
- CONDITIONS: synthetic peptide with ACE, 37 °C, 150 min; RS% = As/(As+Ap)x100 from SIC peak areas, LC-MS
- Procedure: To confirm the reactivity of the identified peptide candidates towards ACE, the synthetic peptides were individually mixed with ACE and incubated at 37 °C for 3 h. The remaining peptide substrate and the resulting product were analyzed using LC-MS/MS. Meanwhile, the degradation rate of each peptide was monitored every 30 min using LC-MS. The percentage of the remaining substrate (RS%) at each time point was calculated as As/(As + Ap) 100%. […]
No end group written: not given here.
MEASURED ATTRIBUTE: Substrate content (%) 150min
Answer with a number only, understood to be in %.

Illustrative cases are given below, each with its answer.
HLPLPLLQSW [HW-10] = 0.00
FFVAPFPEVF [FF-10] = 21.80
AYFYPELFR [AR-9] = 0.00

Entry LVYPFPGPIHNSL [LL-13] : reported Substrate content (%) 150min = ?
2.64

Please give the measured Substrate content (%) 150min for this substance: YVPLGTQ [YQ-7]
6.27

// lookup Substrate content (%) 150min for LHLPLPLL [LL-8]
7.12
